Value source: patent US20250034594A1

# Tested on: gene editing with dCas9
# PROCEDURE DETAILS: Screen of 322 new SSAP proteins, gene editing activity with dCas9 (Table 5)
# Assay type: cell-based
# CONDITION DESCRIPTION: normalized
In this section, each of the molecules is paired with its reported dCas9 with SSAP activity (normalized).
Please reply with the number alone, leaving off any unit.

Worked examples follow.
- MOLECULE: "SSAP_121: SEQ ID NO: 290; Bacillus sp. JAS24-2 (protein, listed as Bacillus sp.) ATNKDVKNQLANRKASAPVTTEQTVEAYMKKMGPKMAEVLPKHMDMDRMSRIALTTIRTNPKLLECSVPSLMGAVMSAVQLGLEPGLLGHCYILPYKSEATFIIGYKGMIDLARRSGHIQSIYAHAVYENDEFEYELGLHPQLKHKPSFGDRGEFIGAYAVAHFKDGGHQMEFMPKSEIEKRRGRSASANSNYSPWKTDYEEMAKKTVVRYMFKYLPISIEVQSQAQQDEVVRKDITEEPEFIEVEQQTEGDGQGDFVIEGE"
  dCas9 with SSAP activity (normalized): 1.531
- MOLECULE: "SSAP_322: SEQ ID NO: 491; Candidatus Dependentiae bacterium (protein, Candidatus Dependentiae bacterium) CHVLNFQTDYKGEIKLAHKYSVRKIIDIYAKVVRDGDVLEIRVENGSQIVNFNPKVFNDGKIIGAFAVVKFVDGSLLYETMSKSEIDHTRVTFSKMPNGMAWKDSEGEMCRKTVLRRICKLIDLHFDSVEQEQAWNDGSDADLTKNEPVKPEIQNPFPTKAVEAVIVTEEEKLRKQLKDKDPTLQDWQIDALVREHKEANQ"
  dCas9 with SSAP activity (normalized): 0.048
- MOLECULE: "SSAP_138: SEQ ID NO: 307; unclassified Coprococcus (protein, listed as Coprococcus sp.) ANNIDLKQELAEQASKVPAKKDEEVKLTKSMTIPDMVKAMMPEIKKALPAVMTPERFTRIALSALNTTPALNQCTPMSFLAALMNAAQLGLEPNTPLGQAYLIPYKNHGTLECQFQIGYKGLIELAYRSGQMQTIQAQTVYENDEFAYQYGLEPVLVHRPAYSDRGEVKYFYGIFKTVNGGYGMAVMSRAEMDLYAKTYSKAYDSSYSPWKSNYEDMAKKTVIKQALKYAPIKTDFQRALSFDETIKKEISLDMSTVKNELLDVA"
  dCas9 with SSAP activity (normalized): "−0.320"

Quick one: dCas9 with SSAP activity (normalized) for SSAP_134: SEQ ID NO: 303; Andreesenia angusta (protein, listed as Andreesenia angusta) SNLKNQLANKAGGTATKKQPQTMQDWIKVMEPQIKKALPSVITAERFTRMALTAISTNPKLAECTPESFMGALMNAAQLGLEPNTPLGQAYLIPYGKSVQFQVGYKGLMELAQRSGQFKSIYAHTVYENDEFEVEYGLTQNIVHKPNFDDRGKPIGFYAVYKLTNGGENFVFMTQREVEEFGKAKSKTFNNGPWKTDFEAMAKKTVLKQLLKYAPIKVEFQREIAQDATIKTEIAEDMTEVPEEMVEAEYEVVEQNTMAEDADLKGTPFETK ? −0.424
